Value source: PubChem BioAssay

- Tgt: Torsin-1A-interacting protein 1 (Homo sapiens)
- Assay Protocol: compound microarray binding of lysate hLAP1 – cell lysate, small-molecule microarray, COS7 lysate, 635/667 nm fluorescence, primary screen (AID 1116)
- Protocol Conditions: 635 nm fluorescence, higher = more signal
The entries below are paired with their reported composite z-score.
Measure Name: composite z-score

Molecule: CC(C)Cc1ccc(CN2CC[C@@H](N)C2)cc1
Meas Value: -1.24
--
Molecule: [N-]=[N+]=NCc1ccccc1[C@@H]1OC(c2ccc(OCCCO)cc2)=N[C@]1(CCS(=O)(=O)c1ccccc1)C(=O)N1CCOCC1
Meas Value: 2
--
Molecule: COC(=O)[C@@]1(Cc2ccc(OC)cc2)[C@H]2c3cc(C(=O)N4CCCC4)n(CCSCCO)c3C[C@H]2CN1C(=O)c1ccccc1
Meas Value: 1.01
--
Molecule: CC1CC/C=C\[C@H]2OC34C=CCN(c5ccc6ccccc6c5)C(=O)[C@H]3N(CCO)C(=O)[C@@H]4C2C(=O)O1 (some centres undefined)
Meas Value: 3.26

====

The entries below are paired with their reported composite z-score.
- Assay Protocol: small molecules captured by biotinylated probe aFST – biochemical, small-molecule microarray, fluorescence 635/667, stem cell growth factor project, primary screen (AID 1086);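 also: score merges 667 nm fluorescence with signal-to-noise of each printed compound spot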
- Protocol Conditions: higher = more signal
Measure Name: composite z-score

Compound: O=C1OCCC=C[C@H]2OC34C=CCN(CCN5CCOCC5)C(=O)[C@H]3N(CCCCCO)C(=O)[C@@H]4C12 (stereo partly drawn)
Measure Name: composite z-score
Meas Value: -0.324

Compound: C=C(CCCC)C(=O)CC[C@@H](OC(C)=O)c1ccc(CO)o1
Measure Name: composite z-score
Meas Value: 0.911

Compound: [N-]=[N+]=NCc1ccccc1[C@@H]1OC(c2ccc(OCCCO)cc2)=N[C@]1(CCS(=O)(=O)c1ccccc1)C(=O)N1CCOCC1
Measure Name: composite z-score
Meas Value: 1.25

Compound: C=CCC(OC(C)=O)[C@@H]1[C@@H](N(Cc2ccc(-c3cccc(C(F)(F)F)c3)o2)C(=O)c2cccc3ccccc23)c2cc(OCCCO)ccc2N1C(=O)Cc1ccc2ccccc2c1 (stereo partly drawn)
Measure Name: composite z-score
Meas Value: 0.214

Compound: NCCCCCCNC(=O)[C@H]1C[C@H]2C(=O)N[C@@H](Cc3ccccc3)C(=O)N2[C@H]1c1cccc(OCCO)c1
Measure Name: composite z-score
Meas Value: 0.482

Compound: COc1ccc([C@H]2C[C@H]3C(I)=C[C@@H]2C(=O)[C@]32CO2)cc1
Measure Name: composite z-score
Meas Value: 0.169

Compound: COCCOC(=O)N1C(=O)[C@@]2(c3cc(C#Cc4ccc(OC)cc4)ccc31)[C@H](c1ccc(O)cc1)N1[C@H](c3ccccc3)[C@H](c3ccccc3)OC(=O)[C@H]1[C@@H]2C(=O)Nc1nc2ccccc2s1
Measure Name: composite z-score
Meas Value: 0.251

Compound: CN(C)CCCCNC(=O)[C@@H]1C[C@@H]2C(=O)N[C@@H](CCCCN)C(=O)N2[C@@H]1c1ccc(O)cc1
Measure Name: composite z-score
Meas Value: 0.214

====

- Tgt: Dickkopf-related protein 1 (Homo sapiens) (UniProt O94907)
- Sequence (O94907 whole entry, looked up): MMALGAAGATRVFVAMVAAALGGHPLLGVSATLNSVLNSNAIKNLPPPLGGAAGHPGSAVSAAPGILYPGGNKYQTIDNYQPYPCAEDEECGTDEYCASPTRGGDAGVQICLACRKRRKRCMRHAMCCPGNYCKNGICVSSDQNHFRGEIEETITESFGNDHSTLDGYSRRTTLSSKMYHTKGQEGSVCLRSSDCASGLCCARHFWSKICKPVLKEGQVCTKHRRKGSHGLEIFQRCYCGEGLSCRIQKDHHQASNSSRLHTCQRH
- Assay Protocol: small molecules binding DKK1 protein – biochemical, small-molecule microarray, 635 nm fluorescence scan, primary screen (AID 1106);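 also: score merges emission near 667 nm with signal to noise over three replicate slides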
- Protocol Conditions: higher = more signal
Label scheme for composite z-score: lower than 0.1 is false (0), 0.1 and above is true (1).

Molecule: COC(=O)[C@@]1(Cc2ccc(OC)cc2)[C@H]2c3cc(C(=O)N4CCCC4)n(CCc4ccc(O)c(O)c4)c3C[C@H]2CN1C(=O)c1ccccc1
Cat: false (0)

Molecule: CCOC(=O)C[C@H]1[C@H](OC(=O)c2ccc(C(=O)c3ccccc3)cc2)[C@@H](NC(=O)Cc2ccc(OC)cc2)c2cc(OCCCO)ccc2N1C(=O)c1ccc2ccccc2n1
Cat: false (0)

Molecule: C=CCC(OC(C)=O)[C@@H]1[C@@H](N(Cc2ccc(-c3ccccc3)cc2)C(=O)Cc2ccc(F)cc2)c2cc(OCCCO)ccc2N1C(=O)c1ccc2ccccc2c1 (stereo partly specified)
Cat: false (0)

Molecule: O=C1C2C=CC(C(O)c3c(F)cccc3Cl)N(Nc3ccccc3F)C2C(=O)N1c1ccccc1 (stereo unspecified)
Cat: false (0)

Molecule: CCCNC(=O)[C@@]1(Sc2ccc(C)cc2)CC(=O)N(Cc2ccccc2C(F)(F)F)[C@@H]1c1ccc(CO)cc1I
Cat: true (1)

Molecule: CC(c1ccccc1)C(O)C1C=CC2C(=O)N(c3ccccc3)C(=O)C2N1Nc1ccccc1 (stereo unspecified)
Cat: false (0)

Molecule: COC(=O)c1c2oc(c1C(=O)OC)C(=O)NC1(CCCCC1)c1cn(nn1)C[C@H](Cc1ccccc1)NC(=O)N[C@H](CO)CC2
Cat: true (1)

Molecule: O=C1OCC=C[C@H]2OC34C=CCN(Cn5nnc6ccccc65)C(=O)[C@H]3N(CCCCCO)C(=O)[C@@H]4[C@@H]12 (stereo partly specified)
Cat: false (0)

Molecule: CCOC(=O)C1=CCC(c2ccc(F)cc2)N(S(=O)(=O)c2ccc(C)cc2)C1 (stereo unspecified)
Cat: true (1)

Molecule: O=C1NC(=O)C2C1C=CC(C(O)c1ccc(I)cc1)N2Nc1ccc(Cl)cc1Cl (stereo unspecified)
Cat: false (0)

Molecule: COCCOC(=O)N1C(=O)[C@@]2(c3cc(C#CCCO)ccc31)[C@H](c1ccc(O)cc1)N1[C@H](c3ccccc3)[C@H](c3ccccc3)OC(=O)[C@H]1[C@@H]2C(=O)N1CCN(c2ncccn2)CC1
Cat: true (1)

Molecule: C=C(CCCC)/C(=C/C[C@H](OC(=O)c1ccncc1)c1ccc(OCCO)cc1)c1cc(C(=O)OC)ccc1OC
Cat: true (1)

Molecule: OCC1C=C(/C=C/c2ccccc2)CN1Cc1ccccc1Br (stereo unspecified)
Cat: true (1)

Molecule: CC(C)OC(=O)C=C1C[C@@H](c2cccc(Cl)c2)O[C@@H](c2cccc(Cl)c2)O1
Cat: false (0)

Molecule: [N-]=[N+]=Nc1ccccc1[C@H]1OC(c2ccc(OCCCO)cc2)=N[C@@]1(CCS(=O)(=O)c1ccccc1)C(=O)NCc1ccccc1
Cat: true (1)

Molecule: CCCCC(=C=CC[C@@H](O)c1ccc(CO)o1)CCO
Cat: true (1)

Molecule: Cc1ccc(S[C@]2(C(=O)NCC(C)C)CC(=O)N(Cc3cc(C(F)(F)F)cc(C(F)(F)F)c3)[C@@H]2c2ccc(CO)cc2)cc1
Cat: false (0)

Molecule: CC(C)Cc1ccc(CN2CC[C@@H](N)C2)cc1
Cat: false (0)

Molecule: O=C1O[C@@H](c2ccccc2)[C@@H](c2ccccc2)N2[C@@H](c3ccccc3OCCO)[C@]3(C(=O)Nc4ccccc43)[C@@H](C(=O)O)[C@H]12
Cat: false (0)

Molecule: O=C1NC(=O)C2C1C=CC(C(O)c1ccc(I)cc1)N2Nc1ccccn1 (stereo unspecified)
Cat: true (1)

Molecule: C[N+](C)(C)CCCCCCNC(=O)[C@H]1C[C@H]2C(=O)N[C@@H](Cc3ccccc3)C(=O)N2[C@H]1c1cccc(OCCO)c1
Cat: true (1)

Molecule: CC(CO)N1C(=O)[C@@H]2C3C(=O)OCCC/C=C\[C@H]3OC23C=CCN(CCN2CCOCC2)C(=O)[C@@H]13 (stereo partly specified)
Cat: true (1)

Molecule: O=C1[C@@]23C=C(Br)[C@H](C[C@@H]2COC3)[C@]12CO2
Cat: false (0)

Molecule: O=C1NC(=O)C2C1C=CC(C(O)C=Cc1ccc([N+](=O)[O-])cc1)N2Nc1ccc(Cl)cc1Cl (stereo unspecified)
Cat: false (0)

Molecule: N#Cc1ccc(C(O)C2C=CC3C(=O)N(c4ccccc4)C(=O)C3N2Nc2ccccc2F)cc1 (stereo unspecified)
Cat: false (0)

Molecule: C=CCOC(=O)[C@H]1[C@@H]2C(=O)O[C@@H](c3ccccc3)[C@@H](c3ccccc3)N2[C@@H](c2ccc(OCCOC(=O)[C@H]3C[C@H]4C(=O)N[C@@H](CCCCN(C)C)C(=O)N4[C@H]3c3cccc(OCCO)c3)cc2)[C@]12C(=O)Nc1ccc(I)cc12
Cat: true (1)

Molecule: O=C1C2C=CC(C(O)c3ccc4c(c3)OCO4)N(Nc3ccc([N+](=O)[O-])cc3)C2C(=O)N1c1ccccc1 (stereo unspecified)
Cat: true (1)

Molecule: CS(=O)(=O)CCOC(=O)C1=CC(CCCO)=CC(C2CC2)N(Cc2cc3c(cc2Br)OCO3)C=C1C(=O)OCCS(C)(=O)=O (stereo unspecified)
Cat: true (1)

Molecule: O=C(NC1CC1)[C@@H]1c2ccccc2C(=O)N(C2Cc3ccccc3C2)[C@H]1c1ccc(CO)cc1
Cat: true (1)

Molecule: C#CCN(C/C=C/c1ccccc1)[C@H](CO)c1ccccc1
Cat: true (1)

Molecule: COC(=O)[C@@]1(Cc2ccccc2)[C@H]2c3cc(C(=O)N4CCCC4)n(Cc4c(CO)[nH]cc(C)c4=O)c3C[C@H]2CN1C(=O)c1ccccc1
Cat: false (0)
